- subjectOfTest: Thromboxane A2 receptor (Homo sapiens, UniProt P21731)
- Sequence (P21731 whole entry): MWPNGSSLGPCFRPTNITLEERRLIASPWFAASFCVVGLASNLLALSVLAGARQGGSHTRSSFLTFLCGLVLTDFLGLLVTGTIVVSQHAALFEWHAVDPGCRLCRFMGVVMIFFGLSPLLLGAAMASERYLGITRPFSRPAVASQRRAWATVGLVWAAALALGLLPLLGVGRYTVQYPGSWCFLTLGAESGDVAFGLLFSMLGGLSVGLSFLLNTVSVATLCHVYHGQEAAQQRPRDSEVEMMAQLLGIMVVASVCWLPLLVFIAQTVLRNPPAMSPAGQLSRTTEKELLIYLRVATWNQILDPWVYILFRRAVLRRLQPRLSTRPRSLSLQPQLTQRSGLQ
- Assay type: functional, cell-based
Catalogue of AC50 readings, one per entry.

Some compounds with recorded AC50:
Query string: May I ask what AC50 has been recorded for CC(C)OC(=O)CCC/C=C\C[C@@H]1[C@@H](CC[C@@H](O)CCc2ccccc2)[C@H](O)C[C@@H]1O ?
Result string: > 10 µM

Query string: Next compound up: Cc1cn([C@H]2C=C[C@@H](CO)O2)c(=O)[nH]c1=O
Result string: > 30 µM

Query string: Next compound up: CC(C)C[C@H]1C(=O)N2CCC[C@H]2[C@]2(O)O[C@](NC(=O)[C@@H]3C=C4c5cccc6[nH]c(Br)c(c56)C[C@H]4N(C)C3)(C(C)C)C(=O)N12
Result string: > 30 µM

Query string: Next compound up: Cn1nnc2c(C(N)=O)ncn2c1=O [TEMOZOLOMIDE]
Result string: > 30 µM

Query string: Next compound up: O=C(OCC(O)CO)c1ccccc1Nc1ccnc2cc(Cl)ccc12 (stereo not drawn)
Result string: 9.8 µM

Query string: Next compound up: N[C@@H]1[C@H]2CN(c3nc4c(cc3F)c(=O)c(C(=O)O)cn4-c3ccc(F)cc3F)C[C@@H]12
Result string: > 30 µM

---
Query string: May I ask what AC50 has been recorded for C[C@@H](O)[C@H]1C(=O)N2C(C(=O)O)=C(S[C@@H]3CN[C@H](C(=O)N(C)C)C3)[C@H](C)[C@H]12 ?
Result string: > 300 µM

Query string: Next compound up: CCOc1ccccc1OCC1CNCCO1 (stereo not drawn)
Result string: > 30 µM
